Recorded values, source ChEMBL document CHEMBL4385593.

- Assay: Volume of distribution at steady state in Sprague-Dawley rat at 2 mg/kg, iv by LC/MS/MS analysis
- Type: ADME, organism-based
- Run Conditions: in vivo, read-out: Vdss
Endpoint: Vd (L/kg)
Please reply with the bare figure in L/kg and do not write the unit itself.

[[record]]
structure_smiles = "CC[C@H](Nc1ncnc2[nH]cnc12)c1nc2cccc(F)c2c(=O)n1-c1ccccc1"
endpoint = "Vd"
measure_unit = "L/kg"
val = 0.884


With those in mind, consider the next compound.
*Q* Please list Vd recorded for the compound C[C@H](Nc1ncnc2[nH]cnc12)C1=Nc2cccc(Cl)c2S(=O)(=O)N1c1ccccc1
*A* 0.853

---

- Assay: Clearance in Sprague-Dawley rat at 2 mg/kg, iv by LC/MS/MS analysis
- Assay type: ADME, organism-based
- Run Conditions: in vivo
Endpoint: clearance (mL/min/kg)
Please reply with the bare figure in mL/min/kg and do not write the unit itself.

*Q* Please list clearance recorded for the compound C[C@H](Nc1ncnc2[nH]cnc12)C1=Nc2cccc(Cl)c2S(=O)(=O)N1c1ccccc1
*A* 25.8

---

The following molecules are shown together with reported Ratio IC50 values.
- Organism: Homo sapiens
- Assay: Selectivity ratio of IC50 for His6-tagged recombinant full length human N-terminal PI3Kbeta to IC50 for His-tagged recombinant human PI3K p110delta/p85alpha
I'd appreciate a reply containing only the number, no unit.

Observe how each entry below is paired with its result.
[[record]]
structure_smiles = "C[C@@H](Nc1ncnc(N)c1C#N)C1=Nc2cccc(Cl)c2S(=O)(=O)N1c1ccccc1"
endpoint = "Ratio IC50"
val = 24

[[record]]
structure_smiles = "C[C@H](Nc1ncnc2[nH]cnc12)C1=Nc2cccc(Cl)c2S(=O)(=O)N1c1ccccc1"
endpoint = "Ratio IC50"
val = 167


*Q* Please list Ratio IC50 recorded for the molecule C[C@@H](Nc1ncnc2[nH]cnc12)C1=Nc2cccc(Cl)c2S(=O)(=O)N1c1ccccc1
*A* 64

---

- Assay: AUC (0 to t) in Sprague-Dawley rat at 2 mg/kg, iv by LC/MS/MS analysis
- Assay type: ADME, organism-based
- Run Conditions: in vivo
The following molecules are shown together with reported AUC(0-t) values.
Please reply with the bare figure in ng·h/mL and do not write the unit itself.

[[record]]
structure_smiles = "C[C@H](Nc1ncnc2[nH]cnc12)C1=Nc2cccc(Cl)c2S(=O)(=O)N1c1ccccc1"
val = 1400


*Q* Please list AUC(0-t) recorded for the molecule CC[C@H](Nc1ncnc2[nH]cnc12)c1nc2cccc(F)c2c(=O)n1-c1ccccc1
*A* 1400

---

The following compounds are shown together with reported Ratio IC50 values.
- Species: Homo sapiens
- Assay: Selectivity ratio of IC50 for His-tagged recombinant human full length PI3K p110alpha/p85alpha to IC50 for His-tagged recombinant human PI3K p110delta/p85alpha

*Q* Please list Ratio IC50 recorded for the compound C[C@H](Nc1ncnc(N)c1C#N)C1=Nc2cccc(Cl)c2S(=O)(=O)N1c1ccccc1
*A* > 3110

*Q* Please list Ratio IC50 recorded for the compound C[C@@H](Nc1ncnc(N)c1C#N)C1=Nc2cccc(Cl)c2S(=O)(=O)N1c1ccccc1
*A* > 714

*Q* Please list Ratio IC50 recorded for the compound C[C@@H](Nc1ncnc2[nH]cnc12)C1=Nc2cccc(Cl)c2S(=O)(=O)N1c1ccccc1
*A* > 81

*Q* Please list Ratio IC50 recorded for the compound C[C@H](Nc1ncnc2[nH]cnc12)C1=Nc2cccc(Cl)c2S(=O)(=O)N1c1ccccc1
*A* 791
